ASSAY EXPLANATION: Water solubility at 25° C. of fragrance ingredients
DETAILS: water, 25 °C
Can you tell me solubility for the items I'm about to list?

Exercise: Please report the recorded solubility for O=C1CCCCCCCCCCCC(=O)OCCO1 [Ethylene Brassylate] .
Key: 1.72 µg/mL

Exercise: Data request, read-out solubility, for COc1cc(C=O)ccc1O [Vanillin]
Key: 6880 µg/mL

Exercise: Would you mind telling me what solubility value was observed for CC12CCC(CC1)C(C)(C)O2 [Eucalyptol] ?
Key: 3500 µg/mL

Exercise: Can you look up the measured solubility of c1ccc(COCc2ccccc2)cc1 [Dibenzyl Ether] for me?
Key: 40 µg/mL

Exercise: Recorded solubility of CC/C=C\CCOC(=O)c1ccccc1O [Cis-3-Hexenyl Salicylate] , please.
Key: 9.52 µg/mL

---

ASSAY EXPLANATION: log P of fragrance ingredients
Assignment: determine reported logP for the given compounds.
Answer with a bare number; do not write a unit.

Exercise: Given the entry CC12CCC(CC1)C(C)(C)O2 [Eucalyptol] , report its measured logP.
Key: 2.74

Exercise: Which logP value is on record for CC/C(=C\CC1CC=C(C)C1(C)C)CO (stereo not drawn) [Bacdanol] ?
Key: 4.3

Exercise: Bench note: what logP did N#C/C=C/c1ccccc1 [Cinnamalva] show?
Key: 1.84

Exercise: Consider the compound shown here: CC(=O)C1(C)CC2=C(CCCC2(C)C)CC1C (stereo not drawn) [Iso E Super] What is its recorded logP?
Key: 4.71

Exercise: # input compound: CCCCCCCCCCCC=O [Aldehyde C-12 Lauric] ; wanted: its logP
Key: 4.989

Exercise: Entry under review: CC(=O)C(C)=CC1C(C)=CCCC1(C)C (stereo not drawn) [Methyl Ionone Gamma] . Reported logP?
Key: 4.315

Exercise: Sample O=Cc1ccc2c(c1)OCO2 [Heliotropine] — what was its logP?
Key: 1.05

Exercise: Quick one: logP of CCCCCC1C(=O)CCC1CC(=O)OC (stereo not drawn) [Hedione] ?
Key: 2.653

Exercise: What does the record list as logP for CC1(O)CCC2C(=CCCC2(C)C)C1 (stereo not drawn) [Ambrinol] ?
Key: 3.785

Exercise: Record request: logP value, item C=C(C)[C@@H]1CCC2=CC(=O)C[C@@H](C)[C@]2(C)C1 [Nootkatone]
Key: 3.77

Exercise: # lookup: logP of CC1C(C)(C)C2=C(C(=O)CCC2)C1(C)C (stereo not drawn) [Cashmeran]
Key: 4.5

Exercise: Any idea what logP was measured for CCCc1ccc(O)c(OC)c1 [Dihydro Eugenol] ?
Key: 2.39

Exercise: Reported logP, compound O=C1CCCCCCCCCCCC(=O)OCCO1 [Ethylene Brassylate] : ____
Key: 2.77

Exercise: What value of logP has been reported for the following compound? CC/C=C\CCO [Cis-3-Hexenol]
Key: 1.7

Exercise: Find the recorded logP belonging to CC(=O)OC(C)(C)C1CC=C(C)CC1 (stereo not drawn) [Terpinyl Acetate] and report it.
Key: 3.59

Exercise: State the recorded logP for this entry: CC1=CC(C)C(C=O)CC1 (stereo not drawn) [Cyclal C/Triplal]
Key: 3

Exercise: Item under review: CCCCCCCCCC=O [Aldehyde C-10] . Reported logP?
Key: 3.97

Exercise: What does the record list as logP for CCOC(=O)CC1(C)OCCO1 [Fructone] ?
Key: 0.982

Exercise: Bench note: what logP did C=CCOC(=O)COCCC(C)C [Allyl Amyl Glycolate] show?
Key: 2.7

Exercise: logP for CC/C=C\CCOC(=O)c1ccccc1O [Cis-3-Hexenyl Salicylate] ?
Key: 4.4

Exercise: Need logP, item CC1CC=CCCCCCCCCCC(=O)C1 (stereo not drawn) [Muscenone]
Key: 4.88

Exercise: Entry c1ccc(COCc2ccccc2)cc1 [Dibenzyl Ether] : reported logP = ?
Key: 3.31

Exercise: logP for C=CC(C)CCCC(C)(C)O (stereo not drawn) [Dihydro Myrcenol] ?
Key: 2.99

Exercise: Recorded logP of CC1COCc2cc3c(cc21)C(C)(C)C(C)C3(C)C (stereo not drawn) [Galaxolide] , please.
Key: 5.92

---

ASSAY EXPLANATION: Vapor pressure of fragrance ingredients
For each entry below, report its Vapor Pressure value.
# value in mm hg; strip the unit string

Exercise: Please look up its Vapor Pressure: CCC(CC)C(=O)N(C)c1cccc(C)c1 [Paradisamide]
Key: 0.0038

Exercise: Can you share its Vapor Pressure? I mean this compound: `C=C(C)[C@@H]1CCC2=CC(=O)C[C@@H](C)[C@]2(C)C1`
Key: 0.000358

Exercise: Bench note: what Vapor Pressure did C=CCOC(=O)COCCC(C)C [Allyl Amyl Glycolate] show?
Key: 0.04

Exercise: Quick one: Vapor Pressure of C=CC(C)(O)CCC=C(C)C (stereo not drawn) ?
Key: 0.016

Exercise: What value of Vapor Pressure has been reported for the following compound? `CCOc1cc(C=O)ccc1O`
Key: 0.001

Exercise: Please give the measured Vapor Pressure for this compound: `CC=Cc1ccc(OC)cc1`
Key: 0.069

---

ASSAY EXPLANATION: Clarity of fragrance ingredient in bioderived 1,3-BG by visual observation
DETAILS: 10% ingredient in bioderived 1,3-BG; clear, slightly haze, cloudy, particles, or separation
TEST READOUT: Clarity 10%

Worked cases, Clarity 10% given:
{"columns": ["COMPOUND", "Clarity 10%"],
 "data": [
  ["CC1CC=CCCCCCCCCCC(=O)C1 (stereo not drawn)", "Cloudy"],
  ["O=C1CCCCCCCCCCCC(=O)OCCO1 [Ethylene Brassylate]", "Cloudy"],
  ["C=CC(C)(O)CCC=C(C)C (stereo not drawn)", "Clear"],
  ["CCCc1ccc(O)c(OC)c1 [Dihydro Eugenol]", "Clear"],
  ["CCC(CC)C(=O)N(C)c1cccc(C)c1 [Paradisamide]", "Clear"]
]}

Exercise: GET /values?readout=Clarity 10%&item= CC(=O)C1(C)CC2=C(CCCC2(C)C)CC1C (stereo not drawn)
Key: Cloudy

Exercise: So what does the record say about Clarity 10% for `C=C(C)[C@@H]1CCC2=CC(=O)C[C@@H](C)[C@]2(C)C1` ?
Key: Clear

Exercise: Dear colleague, I am looking for the recorded Clarity 10% of the following compound: `CC12CCC(CC1)C(C)(C)O2`
Key: Clear

Exercise: Quick check: Clarity 10% of `c1ccc(COCc2ccccc2)cc1` ?
Key: Cloudy

Exercise: Give the measured Clarity 10% of CC(=O)OCCC(C)C [Isoamyl Acetate] .
Key: Clear

Exercise: Returns the measured Clarity 10% for the input compound. Input: `CCCCCCCCCCCC=O`
Key: Clear

Exercise: What value of measured Clarity 10% is listed for CC1=CC(C)C(C=O)CC1 (stereo not drawn) ?
Key: Clear

Exercise: Name the recorded Clarity 10% for CCCCCCCCCC(C)C=O (stereo not drawn) .
Key: Clear

---

ASSAY EXPLANATION: Vapor pressure of fragrance ingredients
// assign YES if Vapor Pressure falls strictly below 0.1 mm hg, else NO (ties count as NO)

Exercise: Hello, is Vapor Pressure of the following compound strictly smaller than 0.1 mm hg? CC(C)=CCCC(C)=CC=O [Citral]
Key: NO

Exercise: Determine whether this compound shows Vapor Pressure lower than 0.1 mm hg (ties excluded): CC/C=C\CCOC(=O)c1ccccc1O [Cis-3-Hexenyl Salicylate]
Key: YES

Exercise: Report whether reported Vapor Pressure is lower than 0.1 mm hg (strictly) for CC(=O)C1=C(C)C2CC3(C1)C(C)CCC3C2(C)C (centres unmarked) [Vertofix Coeur]
Key: YES

Exercise: Criterion: Vapor Pressure strictly below 0.1 mm hg. Is it met by CC/C(=C\CC1CC=C(C)C1(C)C)CO (centres unmarked) [Bacdanol] ?
Key: YES

Exercise: # TODO verify Vapor Pressure < 0.1 mm hg strictly for this compound: CCCCCC1C(=O)CCC1CC(=O)OC (centres unmarked) [Hedione]
Key: YES

Exercise: Hi there! Is Vapor Pressure for CC/C=C\CCO [Cis-3-Hexenol] below 0.1 mm hg, do you know?
Key: NO

Exercise: I'd appreciate it if you could check whether COc1ccc(C=O)cc1 [Anisic Aldehyde] has Vapor Pressure smaller than 0.1 mm hg.
Key: NO

Exercise: Input CC1(C)CCC[C@]2(C)[C@H]3CCO[C@]3(C)CC[C@@H]12 [Ambrox Super (Ambroxan), Ambroxan] ; condition: Vapor Pressure strictly below 0.1 mm hg. Does it hold?
Key: YES

Exercise: In the record for C=CC(C)(CCC=C(C)C)OC(C)=O (centres unmarked) [Linalyl Acetate] , is Vapor Pressure less than 0.1 mm hg?
Key: NO

Exercise: is_below(Vapor Pressure, 0.1 mm hg) for CCCCCCCCCC=O [Aldehyde C-10] ?
Key: NO
